system.under.test: Carbonic anhydrase 2 (Homo sapiens)
method.description: CAII small-molecule binders, profiling panel, biochemical, small-molecule microarray, Alexa647-labelled CAII (AID 1122)
assay.setup: CAII-A647 binding fluorescence, higher = more signal
Exercise: state measured composite z-score for each of the compounds provided.
A bare number is all that is needed in reply.

I'd like to know its composite z-score. The compound in question is COCCCNC(=O)[C@@]1(Cc2ccccc2CN=[N+]=[N-])COC(c2ccc(OCCCO)cc2)=N1
0.673

I'd like to know its composite z-score. The compound in question is CCCC[C@@H](O)C1=C(C)C[C@H]2C(=O)N(C)C(=O)[C@H]2[C@H]1CO
0.804

I'd like to know its composite z-score. The compound in question is C=C1C=C(Br)C2(OCCCO2)[C@H]2OC12 (some centres undefined)
-0.128

I'd like to know its composite z-score. The compound in question is CC(C)N1C(=O)c2ccccc2[C@@H](C(=O)NCc2ccccc2)[C@@H]1c1ccc(CO)cc1
0.741
